# Tested on: PPARg:RXRa 90nM:30nM, anti-RXR (NR concentration 90 nM, RXRa partner concentration 30 nM)
# assay_overview: PBM binding z-score (relative to random genomic background probes); higher = stronger binding; sequences stand for … in GC…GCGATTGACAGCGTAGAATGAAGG
readout_type: PBM binding z-score
Give the value as a plain number.

INPUT: Output measured PBM binding z-score for this item: GCTGCAAGGTCAACTGATGGTCAGCTAAAGCTCG
OUTPUT: 3.97

INPUT: Output measured PBM binding z-score for this item: TCGAGTTGGTTACGGGGGCATTCAGGGATGAAGA
OUTPUT: 2.63

INPUT: Output measured PBM binding z-score for this item: TCTAGTAGGTCACGGAGGTCACACACGACGGGTA
OUTPUT: 8.04

INPUT: Output measured PBM binding z-score for this item: CCGAGTAGGTAACGAGGGGGCATTCAGTGCGAAT
OUTPUT: 1.9

INPUT: Output measured PBM binding z-score for this item: TCGAGTAGGTTACGGCGGCATTCAGGGATGAAGA
OUTPUT: 1.43

INPUT: Output measured PBM binding z-score for this item: CAAACTAGGTCACAGGGGTCAAAGTCCGTGCGTA
OUTPUT: 9.17

INPUT: Output measured PBM binding z-score for this item: ATCTCTAGGTGAAAGTTCAGTGAATCCCGAGGAT
OUTPUT: 11.4

INPUT: Output measured PBM binding z-score for this item: CTATGTAGGATAAGGGGGTCATTCAGTTTGAAAG
OUTPUT: 5.43

INPUT: Output measured PBM binding z-score for this item: GATACAGGGTCAGCTTGAGGCCAGAGTATGGAAA
OUTPUT: 1.56

INPUT: Output measured PBM binding z-score for this item: CGAACTAGGTCCTTGACAGGACAGTGAATAGTAA
OUTPUT: -0.145

INPUT: Output measured PBM binding z-score for this item: ATCGAAAGGTCGAAGGAGAGTATACCCACCCGAA
OUTPUT: 2.01

INPUT: Output measured PBM binding z-score for this item: CGAACTAGGTCAAAGGACGGTGAAAGGCGACGTA
OUTPUT: 8.82

INPUT: Output measured PBM binding z-score for this item: ATCTGTAGGTTATCGGGTCATTCAGTTTGCGCAT
OUTPUT: 3.37

INPUT: Output measured PBM binding z-score for this item: CGAACTAGGTCACCAGGACAGGGAAGAGGTTGGA
OUTPUT: 6.72

INPUT: Output measured PBM binding z-score for this item: CGAACTATGTCAAAGGACAGTGAAAGGCGACGTA
OUTPUT: 5.74

====

# Tested on: RXRa DBDmut IVT, anti-RXR (DBD mutation: RXRa K156A/R161A, NR concentration 90 nM)
# assay_overview: PBM binding z-score (relative to random genomic background probes); higher = stronger binding; sequences stand for … in GC…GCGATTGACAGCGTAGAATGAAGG
Answer n if PBM binding z-score is under 1, and y if it is 1 or more.

INPUT: Entry CGAACTAGGGCACCAGGACAGTGAAGAGGTTGGA : is its PBM binding z-score no less than 1?
OUTPUT: n

INPUT: Entry CGTCAAAGTTCATGGTAACGTAACAGAAAGCAGC : is its PBM binding z-score no less than 1?
OUTPUT: y

INPUT: Entry ATATGTAGGTTACCGGGTCATTCAGTTTGCGCAT : is its PBM binding z-score no less than 1?
OUTPUT: y

INPUT: Entry CGAAATAGGTCAAAGGACAGTGAAAGGCGACGTA : is its PBM binding z-score no less than 1?
OUTPUT: y

INPUT: Entry ATATGTAGGTTCGGGTCATTCAGAAAGTAGGGAA : is its PBM binding z-score no less than 1?
OUTPUT: y

INPUT: Entry CCGTGTAGGTTACGAGGGGGCATTCAGTGCGAAT : is its PBM binding z-score no less than 1?
OUTPUT: y

INPUT: Entry CCGAGTAGGCTACGAGGGGGCATTCAGTGCGAAT : is its PBM binding z-score no less than 1?
OUTPUT: n

INPUT: Entry CCTAGTTGGTCAGGAGGTCCCACACCGGATATGA : is its PBM binding z-score no less than 1?
OUTPUT: n

INPUT: Entry ATCTCTAGGTAAAGGTCAGTGAAAGATCGATAGA : is its PBM binding z-score no less than 1?
OUTPUT: n
